assay: Metabolic stability in mouse liver microsomes; assay type: in vitro ADME; settings: mouse, liver microsomes
Below, each entry is listed alongside its reported microsomal CLint.
Field: numeric (µL/min/mg). Do not append units.

Some compounds with recorded microsomal CLint:
CC(C)(C)/C(N)=N/C(=N/S(=O)(=O)c1ccc(C(F)(F)F)cc1)N1CCC(c2ccccc2)C(c2ccc(Cl)cc2)=N1 (stereo not drawn) [Compound 10o] = 23
N/C(=N\C(=N\S(=O)(=O)c1ccc(C(F)(F)F)cc1)N1CCC(c2ccccc2)C(c2ccc(Cl)cc2)=N1)c1ccc(F)cc1F (stereo not drawn) [Compound 10p] = 25

Proceed to the following item.
Input line: Kindly indicate its recorded microsomal CLint. Item: C/C(N)=N\C(=N\S(=O)(=O)c1ccc(C(F)(F)F)cc1)N1CCC(c2ccccc2)C(c2ccc(Cl)cc2)=N1 (stereo not drawn) [Compound 10b]
Output line: 34
